System: U2OS
Assay: Multiplex assay against U2OS
Assay type: toxicity, cell-based
Conditions: human, 24 h, 1 µM, compound concentration 1 uM, replicate 2
# Population Mitotic Cells (%) values compiled below
readout.type: Population Mitotic Cells (%)

1. COC[C@@H](c1ccc(C(F)(F)F)cc1)N1CCN(C2(C)CCN(C(=O)c3c(C)ncnc3C)CC2)C[C@@H]1C.O=C(O)/C=C\C(=O)O [VICRIVIROC MALEATE]; 6
2. Cc1cnc(-c2cc(N3CCN(C(=O)CCS(C)(=O)=O)CC3)ncc2Cl)c(C)c1; 10
3. CC(=O)Nc1cccc2c1c(Sc1ccc(Cl)cc1)c(C)n2CC(=O)O; 50
4. Cc1c(CC(=O)O)c2cccnc2n1Cc1ccc(S(C)(=O)=O)cc1C(F)(F)F; 33
5. CCCCCC(O)/C=C/[C@H]1C(=O)CC(O)C1C/C=C\CCCC(=O)O (stereo partly drawn); 9
6. O=C(CCCc1ccccc1)Nc1nc2ccccc2c(=O)s1; 15
7. CCCOc1ccc2[nH]cc(C3=CCNCC3)c2n1.Cl; 9
8. CC(C)COc1ccc(CNC(=O)N(Cc2ccc(F)cc2)C2CCN(C)CC2)cc1; 21
9. CC(C)c1noc(N2CCC(COc3ccc(-c4ccc(S(C)(=O)=O)cc4)nc3)CC2)n1; 33
10. N#Cc1cc(F)cc(-c2nc(-c3ccc(F)cn3)no2)c1; 10
11. CC[C@@H](C)Nc1nc(C)nc2c(-c3ccc(OC)nc3C)c(C)nn12; 14
12. CN(C)C(=O)Cn1cc(-c2ccc(-c3cncc4ccccc34)cc2)cn1; 9
13. CC(/C=C1\SC(=S)N(CCCC(=O)Nc2ccc(C(=O)O)c(O)c2)C1=O)=C\c1ccccc1; 5
14. O=C1[C@H](Cc2ccc(O)cc2)N2C(=O)CCN(C(=O)NCc3ccccc3)[C@H]2CN1Cc1cccc2ccccc12; 11
15. CN[C@@H](C)C(=O)N[C@H](C(=O)N1CCC[C@H]1C(=O)Nc1snnc1-c1ccccc1)C1CCCCC1; 14
16. O=C(NCCN1CCC(n2c(=O)[nH]c3cc(Cl)ccc32)CC1)c1ccc(F)cc1 [HALOPEMIDE]; 18
17. Cc1onc(-c2ccccc2Cl)c1C(=O)N(C)c1ccc(Cl)cc1; 16
18. CCc1cc2cc(NS(=O)(=O)c3ccc(C#N)cc3)ccc2n(CC)c1=O; 11
19. Cl.NCCc1ccc(O)c(O)c1 [DOPAMINE HYDROCHLORIDE]; 20
20. CC(C)(C)c1cc(NC(=O)Nc2ccc(-c3cn4c(n3)sc3cc(OCCN5CCOCC5)ccc34)cc2)no1; 37
21. Cc1noc(-c2ccc(-c3ccc(CC(=O)O)cc3)cc2)c1NC(=O)O[C@H](C)c1ccccc1Cl; 22
22. Cc1sc2c(c1C)C(c1ccc(Cl)cc1)=N[C@@H](CC(=O)NCCCCCCCCNC(=O)COc1cccc3c1C(=O)N(C1CCC(=O)NC1=O)C3=O)c1nnc(C)n1-2 (stereo partly drawn); 7
23. Br.CS(=O)(=O)Nc1c(O)ccc2c1CCCC2C1=NCCN1 (stereo not drawn); 7
24. C[C@H](N)COC(=O)[C@@H](CCCCN)NC(=O)Cc1c(-c2ccc3ccccc3c2)[nH]c2c1ccc1ccccc12; 10
25. CN1CCN(c2cc(-c3ccccc3)nc(N)n2)CC1; 20
26. N#Cc1c(Oc2cccc(OS(=O)(=O)CCCC(F)(F)F)c2)cccc1C(F)(F)F; 10
27. CCCCC1=NC2(CCCC2)C(=O)N1Cc1ccc(-c2ccccc2-c2nnn[nH]2)cc1; 33
28. Cl.N=C(N)NC(=O)Cc1c(Cl)cccc1Cl [GUANFACINE HYDROCHLORIDE]; 16
29. COc1cccc2c1c(NS(=O)(=O)c1ccc(Cl)s1)nn2Cc1cccc(CNC(=O)C(C)(C)O)c1; 9
30. CCCCC(=O)N(Cc1ccc(-c2ccccc2-c2nnn[nH]2)cc1)[C@H](C(=O)O)C(C)C; 16
31. NCCc1cn(S(=O)(=O)c2c(Cl)nc3sccn23)c2ccccc12.O=C(O)C(=O)O; 21
32. COc1ccccc1N1CCN(C[C@@H](C(=O)NC(C)(C)C)c2ccccc2)CC1.Cl.Cl; 20
33. Cc1cccc(NC(=O)CN2CCC(c3ccccn3)CC2)c1.Cl.Cl; 26

====

# Population Mitotic Cells (%) values compiled below
System: Fibroblast
Assay: Multiplex assay against human fibroblast
Assay type: toxicity, cell-based
Settings: 24 h, 1 µM, compound concentration 1 uM, replicate 2
readout.type: Population Mitotic Cells (%)

1) O=C(NCCN1CCC(n2c(=O)[nH]c3cc(Cl)ccc32)CC1)c1ccc(F)cc1 [HALOPEMIDE]; 62
2) CC(C)(C)c1cc(NC(=O)Nc2ccc(-c3cn4c(n3)sc3cc(OCCN5CCOCC5)ccc34)cc2)no1; 57
3) Cc1noc(-c2ccc(-c3ccc(CC(=O)O)cc3)cc2)c1NC(=O)O[C@H](C)c1ccccc1Cl; 47
4) NCCc1cn(S(=O)(=O)c2c(Cl)nc3sccn23)c2ccccc12.O=C(O)C(=O)O; 53
5) Cc1sc2c(c1C)C(c1ccc(Cl)cc1)=N[C@@H](CC(=O)NCCCCCCCCNC(=O)COc1cccc3c1C(=O)N(C1CCC(=O)NC1=O)C3=O)c1nnc(C)n1-2 (some centres not stated); 35
6) CCCCCC(O)/C=C/[C@H]1C(=O)CC(O)C1C/C=C\CCCC(=O)O (some centres not stated); 50
7) COc1cccc2c1c(NS(=O)(=O)c1ccc(Cl)s1)nn2Cc1cccc(CNC(=O)C(C)(C)O)c1; 50
8) CC(=O)Nc1cccc2c1c(Sc1ccc(Cl)cc1)c(C)n2CC(=O)O; 63
9) CN(C)C(=O)Cn1cc(-c2ccc(-c3cncc4ccccc34)cc2)cn1; 51
10) N#Cc1c(Oc2cccc(OS(=O)(=O)CCCC(F)(F)F)c2)cccc1C(F)(F)F; 45
11) CC(C)COc1ccc(CNC(=O)N(Cc2ccc(F)cc2)C2CCN(C)CC2)cc1; 47
12) Cc1onc(-c2ccccc2Cl)c1C(=O)N(C)c1ccc(Cl)cc1; 60
13) Cc1cnc(-c2cc(N3CCN(C(=O)CCS(C)(=O)=O)CC3)ncc2Cl)c(C)c1; 52
14) CCCOc1ccc2[nH]cc(C3=CCNCC3)c2n1.Cl; 61
15) Br.CS(=O)(=O)Nc1c(O)ccc2c1CCCC2C1=NCCN1 (configuration not stated); 66
16) O=C(CCCc1ccccc1)Nc1nc2ccccc2c(=O)s1; 57
17) C[C@H](N)COC(=O)[C@@H](CCCCN)NC(=O)Cc1c(-c2ccc3ccccc3c2)[nH]c2c1ccc1ccccc12; 70
18) CC(/C=C1\SC(=S)N(CCCC(=O)Nc2ccc(C(=O)O)c(O)c2)C1=O)=C\c1ccccc1; 66
19) Cl.N=C(N)NC(=O)Cc1c(Cl)cccc1Cl [GUANFACINE HYDROCHLORIDE]; 54
20) Cc1cccc(NC(=O)CN2CCC(c3ccccn3)CC2)c1.Cl.Cl; 59
21) Cc1c(CC(=O)O)c2cccnc2n1Cc1ccc(S(C)(=O)=O)cc1C(F)(F)F; 48
22) O=C1[C@H](Cc2ccc(O)cc2)N2C(=O)CCN(C(=O)NCc3ccccc3)[C@H]2CN1Cc1cccc2ccccc12; 71
23) CCCCC1=NC2(CCCC2)C(=O)N1Cc1ccc(-c2ccccc2-c2nnn[nH]2)cc1; 68
24) CN1CCN(c2cc(-c3ccccc3)nc(N)n2)CC1; 52
25) COC[C@@H](c1ccc(C(F)(F)F)cc1)N1CCN(C2(C)CCN(C(=O)c3c(C)ncnc3C)CC2)C[C@@H]1C.O=C(O)/C=C\C(=O)O [VICRIVIROC MALEATE]; 69
26) CC[C@@H](C)Nc1nc(C)nc2c(-c3ccc(OC)nc3C)c(C)nn12; 52
27) N#Cc1cc(F)cc(-c2nc(-c3ccc(F)cn3)no2)c1; 72
28) CCc1cc2cc(NS(=O)(=O)c3ccc(C#N)cc3)ccc2n(CC)c1=O; 56
29) Cl.NCCc1ccc(O)c(O)c1 [DOPAMINE HYDROCHLORIDE]; 48
30) CN[C@@H](C)C(=O)N[C@H](C(=O)N1CCC[C@H]1C(=O)Nc1snnc1-c1ccccc1)C1CCCCC1; 62
31) CC(C)c1noc(N2CCC(COc3ccc(-c4ccc(S(C)(=O)=O)cc4)nc3)CC2)n1; 55
32) CCCCC(=O)N(Cc1ccc(-c2ccccc2-c2nnn[nH]2)cc1)[C@H](C(=O)O)C(C)C; 61

====

# Total Cell Count values compiled below
System: Fibroblast
Experiment: Multiplex assay against human fibroblast
Type: toxicity, cell-based
Conditions: 12 h, 10 µM, compound concentration 10 uM, replicate 1
readout.type: Total Cell Count

1) CCCCC(=O)N(Cc1ccc(-c2ccccc2-c2nnn[nH]2)cc1)[C@H](C(=O)O)C(C)C; 106
2) COc1ccccc1N1CCN(C[C@@H](C(=O)NC(C)(C)C)c2ccccc2)CC1.Cl.Cl; 134
3) Cc1cnc(-c2cc(N3CCN(C(=O)CCS(C)(=O)=O)CC3)ncc2Cl)c(C)c1; 142
4) COC[C@@H](c1ccc(C(F)(F)F)cc1)N1CCN(C2(C)CCN(C(=O)c3c(C)ncnc3C)CC2)C[C@@H]1C.O=C(O)/C=C\C(=O)O [VICRIVIROC MALEATE]; 208
5) O=C(NCCN1CCC(n2c(=O)[nH]c3cc(Cl)ccc32)CC1)c1ccc(F)cc1 [HALOPEMIDE]; 204
6) Cc1c(CC(=O)O)c2cccnc2n1Cc1ccc(S(C)(=O)=O)cc1C(F)(F)F; 132
7) O=C(CCCc1ccccc1)Nc1nc2ccccc2c(=O)s1; 147
8) CC(/C=C1\SC(=S)N(CCCC(=O)Nc2ccc(C(=O)O)c(O)c2)C1=O)=C\c1ccccc1; 123
9) CN(C)C(=O)Cn1cc(-c2ccc(-c3cncc4ccccc34)cc2)cn1; 113
10) Cc1noc(-c2ccc(-c3ccc(CC(=O)O)cc3)cc2)c1NC(=O)O[C@H](C)c1ccccc1Cl; 119
11) N#Cc1cc(F)cc(-c2nc(-c3ccc(F)cn3)no2)c1; 179
12) Cc1sc2c(c1C)C(c1ccc(Cl)cc1)=N[C@@H](CC(=O)NCCCCCCCCNC(=O)COc1cccc3c1C(=O)N(C1CCC(=O)NC1=O)C3=O)c1nnc(C)n1-2 (stereo partly drawn); 171
13) Br.CS(=O)(=O)Nc1c(O)ccc2c1CCCC2C1=NCCN1 (stereo not drawn); 148
14) CCCCCC(O)/C=C/[C@H]1C(=O)CC(O)C1C/C=C\CCCC(=O)O (stereo partly drawn); 139
15) CN1CCN(c2cc(-c3ccccc3)nc(N)n2)CC1; 216
16) CC[C@@H](C)Nc1nc(C)nc2c(-c3ccc(OC)nc3C)c(C)nn12; 143
17) Cc1cccc(NC(=O)CN2CCC(c3ccccn3)CC2)c1.Cl.Cl; 229
18) O=C1[C@H](Cc2ccc(O)cc2)N2C(=O)CCN(C(=O)NCc3ccccc3)[C@H]2CN1Cc1cccc2ccccc12; 146

Origin of values: ChEMBL document CHEMBL5058577
